- Target system: Cytochrome P450 2C9 (Homo sapiens) (UniProt P11712)
- Sequence (P11712 whole entry, looked up): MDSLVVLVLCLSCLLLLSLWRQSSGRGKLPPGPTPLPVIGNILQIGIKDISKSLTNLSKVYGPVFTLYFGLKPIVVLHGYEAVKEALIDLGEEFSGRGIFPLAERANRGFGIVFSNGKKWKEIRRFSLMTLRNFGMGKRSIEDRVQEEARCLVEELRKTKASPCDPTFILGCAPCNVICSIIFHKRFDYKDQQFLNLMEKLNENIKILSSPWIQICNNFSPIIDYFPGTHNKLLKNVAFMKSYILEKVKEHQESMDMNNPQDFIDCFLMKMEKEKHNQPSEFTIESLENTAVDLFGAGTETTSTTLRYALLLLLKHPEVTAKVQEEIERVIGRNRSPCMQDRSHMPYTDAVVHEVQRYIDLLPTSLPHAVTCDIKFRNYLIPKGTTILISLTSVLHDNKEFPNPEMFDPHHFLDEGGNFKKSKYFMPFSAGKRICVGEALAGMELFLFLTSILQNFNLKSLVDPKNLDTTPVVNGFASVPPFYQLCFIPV
- Test protocol: Cytochrome P450 Family 2 Subfamily C Member 9 (CYP2C9) small molecule antagonists: luciferase reporter qHTS assay (AID 1671198); further: nearly all actives have a fitted effect of over 50% in size
- Test context: P450-Glo CYP2C9 enzyme assay, luciferin luminescence; series mostly up to 115 µM
Results filed as inconclusive are left out. Activity calls are given as the source filed them. The call rests on the fitted dose curve; in most records, active means well fitted inhibition curve with a large enough effect in the repeat runs; inconclusive means weak or mixed curves; inactive means no such curve, though single readings can be large or run the other way.
Outcomes: 1.0 for active, 0.0 for inactive

Compound: CC(=O)Oc1ccc(C(C)=O)cc1
Label class: 0.0

Compound: COCCCOc1cc(C[C@@H](C[C@H](N)[C@@H](O)C[C@H](C(=O)NCC(C)(C)C(N)=O)C(C)C)C(C)C)ccc1OC
Label class: 0.0

Compound: CCCCCCCCOCCC#N
Label class: 0.0

Compound: CC(C)C(C)C
Label class: 0.0

Compound: Nc1ccc(C(=O)NCC(=O)O)cc1
Label class: 0.0

Compound: CC(=O)c1ccc2ccc3ccccc3c2c1
Label class: 1.0

Compound: Cc1ccc2cccnc2c1
Label class: 0.0

Compound: C=CCOC(=O)CCCCCCCC
Label class: 0.0

Compound: CC(O)CCCCn1c(=O)c2c(ncn2C)n(C)c1=O (stereo not given)
Label class: 0.0

Compound: CC(CN1CC(=O)NC(=O)C1)N1CC(=O)NC(=O)C1 (stereo not given)
Label class: 0.0

Compound: COc1cnc(NS(=O)(=O)c2ccc(N)cc2)nc1
Label class: 0.0

Compound: CC1(C)C(=O)C(C)(C)C1=O
Label class: 0.0

Compound: CC/C=C\CCOC(=O)c1ccccc1
Label class: 0.0

Compound: COC(=O)c1cc(Cl)c(NC(C)=O)cc1OC
Label class: 0.0

Compound: CC(=O)OC/C=C(/C)CCC=C(C)C
Label class: 0.0

----------
- Test protocol: qHTS assay for small molecule activators of the heat shock response signaling pathway - cell viability counter screen (AID 743209); further: nearly all actives have a fitted effect of over 50% in size
- Test context: HSE-bla HeLa viability, CellTiter-Glo luminescence, 5 h; series mostly up to 62.6 µM
Results filed as inconclusive are left out. Active and inactive are the calls of the source. The call rests on the fitted dose curve; in most records, active means well fitted cell-killing curve with a large enough effect in the repeat runs; inconclusive means weak or mixed curves, or effect the other way; inactive means no such curve, though single readings can be large or run the other way.

Compound: COC(=O)N/N=C/c1c[n+]([O-])c2ccccc2[n+]1[O-]
activity change, negative = cytotoxicity: inactive
//
Compound: CCCCN1C(=O)c2ccccc2C1=O
activity change, negative = cytotoxicity: inactive
//
Compound: CCN(CC)CC(=O)Oc1ccc(NC(C)=O)cc1
activity change, negative = cytotoxicity: inactive
//
Compound: CC(C)OCCO
activity change, negative = cytotoxicity: inactive
//
Compound: COc1cc(C(=O)NC2CCCNC2)cc(OC)c1OC (configuration not stated)
activity change, negative = cytotoxicity: inactive
//
Compound: N=C(N)N
activity change, negative = cytotoxicity: inactive
//
Compound: CCN1CCN(C(=O)N[C@@H](C(=O)N[C@@H]2C(=O)N3[C@@H]2SC(C)(C)[C@H]3C(=O)O)c2ccccc2)C(=O)C1=O
activity change, negative = cytotoxicity: inactive
//
Compound: COC(=O)C(c1ccccc1Cl)N1CCc2sccc2C1 (configuration not stated)
activity change, negative = cytotoxicity: inactive
//
Compound: C=C(C)C(=O)OCCOC1CC2CC1C1C=CCC21 (configuration not stated)
activity change, negative = cytotoxicity: inactive
//
Compound: CCOC(=O)c1ccc(N(C)C)cc1
activity change, negative = cytotoxicity: inactive
//
Compound: NNC(=O)CCCCC(=O)NN
activity change, negative = cytotoxicity: inactive
//
Compound: CCCCN(CCCC)CCCCCCN(CCCC)CCCC
activity change, negative = cytotoxicity: inactive
//
Compound: CC(C)(O)CCCC1=CCC(C=O)CC1 (configuration not stated)
activity change, negative = cytotoxicity: inactive
//
Compound: CCCCCCCCS(=O)(=O)O
activity change, negative = cytotoxicity: inactive
//
Compound: C=CCCCCCCCCCCCCCC
activity change, negative = cytotoxicity: inactive
//
Compound: Cc1ccc(S(=O)(=O)NC(=O)NN2CC3CCCC3C2)cc1 (configuration not stated)
activity change, negative = cytotoxicity: inactive
//
Compound: CC(=O)SCC(CC(=O)c1ccc(C)cc1)C(=O)O (configuration not stated)
activity change, negative = cytotoxicity: inactive
//
Compound: CCC(C)c1nccnc1OC (configuration not stated)
activity change, negative = cytotoxicity: inactive
//
Compound: CC(C)C[P+](C)(CC(C)C)CC(C)C
activity change, negative = cytotoxicity: inactive
//
Compound: Cc1cc(C)c(N)c(Cl)c1
activity change, negative = cytotoxicity: inactive
//
Compound: N#Cc1ccccc1C#N
activity change, negative = cytotoxicity: inactive
//
Compound: C=CCON/C(CCC)=C1\C(=O)CC(C)(C)C(C(=O)OC)=C1O
activity change, negative = cytotoxicity: inactive
//
Compound: O=c1c(O)c(O)c1=O
activity change, negative = cytotoxicity: inactive
//
Compound: O=c1[nH]c(=O)c2cn[nH]c2[nH]1
activity change, negative = cytotoxicity: inactive
//
Compound: NS(=O)(=O)c1cc2c(cc1C(F)(F)F)NCNS2(=O)=O
activity change, negative = cytotoxicity: inactive
//
Compound: COc1ccc2cc(CCC(C)=O)ccc2c1
activity change, negative = cytotoxicity: inactive
//
Compound: c1coc(Cn2cccc2)c1
activity change, negative = cytotoxicity: inactive
//
Compound: Cc1ccc2ccccc2n1
activity change, negative = cytotoxicity: inactive
//
Compound: COC(=O)c1ccc(NC(C)=O)cc1OC
activity change, negative = cytotoxicity: inactive
//
Compound: Cc1nc2ccc(Cl)cc2[nH]1
activity change, negative = cytotoxicity: inactive
//
Compound: CN(C)CCc1c[nH]c2ccc(CS(=O)(=O)N3CCCC3)cc12
activity change, negative = cytotoxicity: inactive
//
Compound: CCCCCCCCCCCCCCCC/C=C/C1CC(=O)OC1=O (configuration not stated)
activity change, negative = cytotoxicity: inactive
//
Compound: CC(=O)OC/C=C(/C)CCC=C(C)C
activity change, negative = cytotoxicity: inactive
//
Compound: O=Cc1ccc(C(=O)O)cc1
activity change, negative = cytotoxicity: inactive
//
Compound: C/C=C(\C)C(=O)OC/C=C(\C)CCC=C(C)C
activity change, negative = cytotoxicity: inactive
//
Compound: CC[C@@]1(c2ccccc2)NC(=O)N(C)C1=O
activity change, negative = cytotoxicity: inactive
//
Compound: CCCc1ccc(O)c(OC)c1
activity change, negative = cytotoxicity: inactive
//
Compound: CCC(C)(C)C
activity change, negative = cytotoxicity: inactive
//
Compound: O=C1CC2(CCCC2)CC(=O)N1CCNCC1COc2ccccc2O1 (configuration not stated)
activity change, negative = cytotoxicity: inactive
//
Compound: CCCCCCCC(=O)N(C)C
activity change, negative = cytotoxicity: inactive
//
Compound: CCCCCC(CC)OC(=O)CCCOc1ccc(Cl)cc1Cl (configuration not stated)
activity change, negative = cytotoxicity: inactive
//
Compound: CC(O)C(CO)C(C)O (configuration not stated)
activity change, negative = cytotoxicity: inactive
//
Compound: C/C(=N\O)c1ccc(OCC(=O)N2CCCCC2)cc1
activity change, negative = cytotoxicity: inactive
//
Compound: CC1(C)CC(N)CC(C)(C)N1
activity change, negative = cytotoxicity: inactive
//
Compound: O=C(OOC(=O)c1ccccc1)c1ccccc1
activity change, negative = cytotoxicity: inactive
//
Compound: CCCCc1ccc(Cl)cc1
activity change, negative = cytotoxicity: inactive
//
Compound: CCOC(=O)CC(C(C)=O)C(C)=O
activity change, negative = cytotoxicity: inactive
//
Compound: CCCCCCCCCCCBr
activity change, negative = cytotoxicity: inactive
//
Compound: CCCCC(O)/C=C(C)/C=C/C=C/C(=O)N1CCCC1=O (configuration not stated)
activity change, negative = cytotoxicity: inactive
//
Compound: Cc1ccc(O)c(C(=O)c2ccccc2)c1
activity change, negative = cytotoxicity: inactive
//
Compound: CC(C)=CCC/C(C)=C\C#N
activity change, negative = cytotoxicity: inactive
//
Compound: CN(C)CCC[C@@]1(c2ccc(F)cc2)OCc2cc(C#N)ccc21
activity change, negative = cytotoxicity: inactive
//
Compound: NC[C@H]1O[C@H](O[C@H]2[C@H](O)[C@@H](O[C@H]3O[C@H](CO)[C@@H](O)[C@H](N)[C@H]3O)[C@H](N)C[C@@H]2N)[C@H](N)[C@@H](O)[C@@H]1O
activity change, negative = cytotoxicity: inactive
//
Compound: Cc1cc(N)no1
activity change, negative = cytotoxicity: inactive
//
Compound: C=COCCCCO
activity change, negative = cytotoxicity: inactive
//
Compound: O=Cc1ccccc1S(=O)(=O)O
activity change, negative = cytotoxicity: inactive
//
Compound: CC(=O)OC1CCC(C(C)(C)C)CC1 (configuration not stated)
activity change, negative = cytotoxicity: inactive
